Measured normalised response of individual entries
Test system: MFM-223
ASSAY_METHOD_TEXT: normalised response (% of control), CellTiter-Glo; higher = more viable cells (100 = DMSO, 0 = benzethonium chloride kill control)
STATED_CONDITIONS: incubation time: 72 h
Answer as a quantity: numeral, then unit.

CN(C)c1nc(N(C)C)nc(N(C)C)n1 [Altretamine] (1000 nM) : 103%
CC(C)C[C@@H](C(=O)N[C@H](C(=O)OC1CCCC1)c1ccccc1)[C@H](O)C(=O)NO [Tosedostat] (1000 nM) : 70.5%
Nc1cc(C(F)(F)F)c(-c2cc(N3CCOCC3)nc(N3CCOCC3)n2)cn1 [Buparlisib] (1000 nM) : 53.3%
COc1cc(O)c2c(c1)/C=C/C[C@H](O)[C@H](O)C(=O)/C=C\C[C@H](C)OC2=O [(5Z)-7-Oxozeaenol] (1000 nM) : 90.4%

Here's the next entry for you.
Ask: Consider the molecule COc1cc2c(NC3CCN(C(C)C)CC3)nc(N3CCC(F)(F)CC3)nc2cc1OCCCN1CCCC1 [UNC0642] (1000 nM) . State its measured normalised response.
Reply: 91.2%
